Measured melting point by item
The response must be a number in °C with no trailing unit.

CC(Nc1cc(F)cc(F)c1)c1cc(C(=O)N2CCOCC2)cc2ncc(N3CCOCC3)nc12 (single isomer, unassigned) : 100

Proceeding to the next compound to report its melting point.
Please look up its melting point: CC(Nc1ccc(F)c(F)c1)c1cc(C(=O)NCC(C)(C)O)cc2ncc(N3CCOCC3)nc12 (single isomer, unassigned) [Compound 348a]
102

* * *

tested on: Akt phosphorylated at Ser473 in PC-3 cells; test: Cellular assay: phosphorylation of Akt at Ser473 in PC-3 cells (MSD ELISA); format: cell-based; settings: PC-3 cells, 60 min compound incubation, MSD ELISA; read-out: IC50 pAkt_S473
# pIC50 values compiled below
Expect pIC50 as a plain number equal to -log10 of the molar concentration.

# annotated cases, reported pIC50 shown
CC(Nc1cc(F)cc(F)c1)c1cc(C(=O)N2CCOCC2)cc2ncc(N3CCOCC3)nc12 (stereo not shown) [Compound 7] : 7.38
CC(Nc1cc(F)c(F)c(F)c1)c1cc(C(=O)NCCO)cc2ncc(N3CCOCC3)nc12 (single isomer, unassigned) [Compound 213] : 7.48
C[C@@H]1CN(c2cnc3cc(C(=O)N(C)C)cc(C4CCCN4c4cc(F)cc(F)c4)c3n2)CCO1 (stereo partly shown) : 8.52

Look at this compound and give its reported pIC50. O=C(c1cc(C2CCCN2c2cc(F)cc(F)c2)c2nc(N3CCOCC3)cnc2c1)N1CCC1 (single isomer, unassigned) [Compound 37]
6.70

Would you kindly share the measured pIC50 for COC1CN(Cc2cc(C(C)Nc3cc(F)cc(F)c3)c3nc(N4CCOCC4)cnc3c2)CC1OC (single isomer, unassigned) ?
6.43

Any idea what pIC50 was measured for CNCCNC(=O)c1cc(C(C)Nc2cccc(F)c2)c2nc(N3CCOCC3)cnc2c1 (single isomer, unassigned) [Compound 139] ?
6.88

# get_value(readout='pIC50', item= CNCCNC(=O)c1cc(C(C)Nc2cc(F)cc(F)c2)c2nc(N3CCOCC3)cnc2c1 (single isomer, unassigned) [Compound 406a] )
8.10
